This section presents binders with their documented IL-2, % of BMS, at 11.11111111 ug/mL values.
- Tgt: T1, human LAG3 expressed on cells (human, UniProt P18627 23-525)
- T1 sequence (looked up): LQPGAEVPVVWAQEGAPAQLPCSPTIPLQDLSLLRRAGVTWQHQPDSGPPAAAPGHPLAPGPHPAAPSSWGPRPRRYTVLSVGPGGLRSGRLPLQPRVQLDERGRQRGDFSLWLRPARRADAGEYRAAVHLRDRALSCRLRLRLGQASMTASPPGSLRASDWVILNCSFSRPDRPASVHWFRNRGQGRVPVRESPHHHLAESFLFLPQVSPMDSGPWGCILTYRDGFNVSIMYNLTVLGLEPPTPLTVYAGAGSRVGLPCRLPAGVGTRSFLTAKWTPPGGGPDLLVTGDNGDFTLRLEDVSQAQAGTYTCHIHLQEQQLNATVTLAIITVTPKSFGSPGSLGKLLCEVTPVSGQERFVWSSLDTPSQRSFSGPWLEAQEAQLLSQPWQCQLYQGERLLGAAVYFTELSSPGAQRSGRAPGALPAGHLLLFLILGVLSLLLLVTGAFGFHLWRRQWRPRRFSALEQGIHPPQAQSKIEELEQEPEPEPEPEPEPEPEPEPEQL
- Test protocol: cell-based or functional assay
Reply numerically in %, unit not repeated.

Completed entries (count: 2):
Binder	IL-2, % of BMS, at 11.11111111 ug/mL / %
combination of sdAbs 25 and 27 (other) VHH 1: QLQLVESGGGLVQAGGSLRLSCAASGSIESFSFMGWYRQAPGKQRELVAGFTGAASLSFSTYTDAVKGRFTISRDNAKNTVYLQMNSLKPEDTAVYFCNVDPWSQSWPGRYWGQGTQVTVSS VHH 2: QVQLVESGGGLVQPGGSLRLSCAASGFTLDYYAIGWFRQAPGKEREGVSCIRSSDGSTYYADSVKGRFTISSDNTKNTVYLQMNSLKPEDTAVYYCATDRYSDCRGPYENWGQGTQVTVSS	69.3
sdAb No. 25 (VHH, Fc of the tested form not described; also called sdAb 25; sdAb #25; not shown: Fc part implied by anti-human Fc capture and anti-human IgG Fc detection) VHH: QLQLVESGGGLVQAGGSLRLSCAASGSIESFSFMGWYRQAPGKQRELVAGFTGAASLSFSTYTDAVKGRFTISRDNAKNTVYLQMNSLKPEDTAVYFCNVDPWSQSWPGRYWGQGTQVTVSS	34.1

Now consider the entry below.
**Query** Recall and state the measured IL-2, % of BMS, at 11.11111111 ug/mL for combination of sdAbs 25 and 2015 (other) VHH 1: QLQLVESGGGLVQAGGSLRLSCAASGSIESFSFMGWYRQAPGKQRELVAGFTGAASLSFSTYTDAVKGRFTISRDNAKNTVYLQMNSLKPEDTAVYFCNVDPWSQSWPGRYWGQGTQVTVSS VHH 2: QLQLVESGGGLAQTGGSLRLSCAAAGFTFDDTATGWFRQAPGKNREGVACISSSDGRIHYIDSAKGRFTISKDNAKKTVYLQMDSLKPEDTAVYYCAAARKGSTDCQGAIWGSWGQGTQVIVSS .
**Result** 52.5
